B1: ZNF263 (parent)
chain: QPKKLHLCPLCGKNFSNNSNLIRH

- Variants of: B1
- Assay comment: protein stability index of a GFP-peptide fusion (GPS, HEK-293T) (PSI 1-6); higher = more stable;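 also: lentivirally expressed fusions sorted by FACS into six bins by GFP to DsRed ratio, PSI derived from sequencing read proportions per bin multiplied by bin number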
- Applied conditions: c terminus: a fixed tail appended
Readout name: protein stability index

Mutation code	Assay result
S19H	2.55
C11Q	2.91
R23I	1.91
N17W	2.15
C8P	2.82
R23N	2.96

For each of the items listed, what is its protein stability index?
1. C11T
2. I22D
3. K4F
4. C11F

a:
1. 3.11
2. 2.86
3. 2.17
4. 1.87

For each of the items listed, what is its protein stability index?
1. K3A
2. R23E

a:
2.33
3.06

For each of the items listed, what is its protein stability index?
1. S16K
2. L21P
3. K3D
4. P2T
5. K4R
6. C8V
7. R23M
8. L7Y

a:
1. 2.56
2. 1.93
3. 2.94
4. 2.57
5. 1.88
6. 3.15
7. 2.52
8. 3.02

For each of the items listed, what is its protein stability index?
1. K4G
2. C8W

a:
2.63
1.97
